# assayProcedure: Human clinical pharmacokinetics (plasma rezafungin, plasma and whole blood total radioactivity)
# Format: in vivo
# conditionsUsed: male, plasma, single 400-mg IV infusion, apparent volume of distribution, terminal phase, mean (SD), SD, read-out: VZ, plasma rezafungin
*1 amine or outer side, *2 acyl side, *3 side chain or, on linkers, in order; H or OH if unused. Where a SMILES comes first, the peptide text is derived from it. Bridges are numbered along the chain shown (N, C = ends). [ ]: non-standard residue; d: D form. The star is where a group is joined. Orn(4R-OH,5R-OCH2CH2NMe3+) = C[N+](C)(C)CCO[C@@H](N[*:3])[C@H](O)C[C@H](N[*:1])C(=O)[*:2]; pTerphenylCO(4''-OnC5H11) = CCCCCOc1ccc(-c2ccc(-c3ccc(C(=O)*)cc3)cc2)cc1; hTyr(3S-OH,4S-OH) = N[C@H](C(=O)O)[C@H](O)[C@@H](O)c1ccc(O)cc1; Pro(3S-OH,4S-Me) = C[C@H]1CN[C@H](C(=O)O)[C@H]1O; Hyp = O=C(O)[C@@H]1C[C@@H](O)CN1
readout: Vd
In your response, put the unit directly after the numeric value.

QUERY: What does the record list as Vd for CCCCCOc1ccc(-c2ccc(-c3ccc(C(=O)N[C@H]4C[C@@H](O)[C@@H](OCC[N+](C)(C)C)NC(=O)[C@@H]5[C@@H](O)[C@@H](C)CN5C(=O)[C@H]([C@@H](C)O)NC(=O)[C@H]([C@H](O)[C@@H](O)c5ccc(O)cc5)NC(=O)[C@@H]5C[C@@H](O)CN5C(=O)[C@H]([C@@H](C)O)NC4=O)cc3)cc2)cc1 [rezafungin] ({pTerphenylCO(4''-OnC5H11)}-[Orn(4R-OH,5R-OCH2CH2NMe3+)]T[Hyp][hTyr(3S-OH,4S-OH)]T[Pro(3S-OH,4S-Me)]; lactam 1-C) ?
RESULT: 88.6 L

----------
# assayProcedure: Human clinical pharmacokinetics (plasma rezafungin, plasma and whole blood total radioactivity)
# Format: in vivo
# conditionsUsed: male, plasma, single 400-mg IV infusion, median (min, max)
*1 amine or outer side, *2 acyl side, *3 side chain or, on linkers, in order; H or OH if unused. Where a SMILES comes first, the peptide text is derived from it. Bridges are numbered along the chain shown (N, C = ends). [ ]: non-standard residue; d: D form. The star is where a group is joined. Orn(4R-OH,5R-OCH2CH2NMe3+) = C[N+](C)(C)CCO[C@@H](N[*:3])[C@H](O)C[C@H](N[*:1])C(=O)[*:2]; pTerphenylCO(4''-OnC5H11) = CCCCCOc1ccc(-c2ccc(-c3ccc(C(=O)*)cc3)cc2)cc1; hTyr(3S-OH,4S-OH) = N[C@H](C(=O)O)[C@H](O)[C@@H](O)c1ccc(O)cc1; Pro(3S-OH,4S-Me) = C[C@H]1CN[C@H](C(=O)O)[C@H]1O; Hyp = O=C(O)[C@@H]1C[C@@H](O)CN1
readout: Tmax (h)
# value in h; strip the unit string

QUERY: What does the record list as Tmax for CCCCCOc1ccc(-c2ccc(-c3ccc(C(=O)N[C@H]4C[C@@H](O)[C@@H](OCC[N+](C)(C)C)NC(=O)[C@@H]5[C@@H](O)[C@@H](C)CN5C(=O)[C@H]([C@@H](C)O)NC(=O)[C@H]([C@H](O)[C@@H](O)c5ccc(O)cc5)NC(=O)[C@@H]5C[C@@H](O)CN5C(=O)[C@H]([C@@H](C)O)NC4=O)cc3)cc2)cc1 [rezafungin] ({pTerphenylCO(4''-OnC5H11)}-[Orn(4R-OH,5R-OCH2CH2NMe3+)]T[Hyp][hTyr(3S-OH,4S-OH)]T[Pro(3S-OH,4S-Me)]; lactam 1-C) ?
RESULT: 1

----------
# assayProcedure: Human clinical pharmacokinetics (plasma rezafungin, plasma and whole blood total radioactivity)
# Format: in vivo
# conditionsUsed: plasma, 9 healthy male subjects, single 400-mg IV infusion (200 μCi), LC-MS/MS, arithmetic mean (SD), SD, read-out: AUC0-t, plasma rezafungin
*1 amine or outer side, *2 acyl side, *3 side chain or, on linkers, in order; H or OH if unused. Where a SMILES comes first, the peptide text is derived from it. Bridges are numbered along the chain shown (N, C = ends). [ ]: non-standard residue; d: D form. The star is where a group is joined. Orn(4R-OH,5R-OCH2CH2NMe3+) = C[N+](C)(C)CCO[C@@H](N[*:3])[C@H](O)C[C@H](N[*:1])C(=O)[*:2]; pTerphenylCO(4''-OnC5H11) = CCCCCOc1ccc(-c2ccc(-c3ccc(C(=O)*)cc3)cc2)cc1; hTyr(3S-OH,4S-OH) = N[C@H](C(=O)O)[C@H](O)[C@@H](O)c1ccc(O)cc1; Pro(3S-OH,4S-Me) = C[C@H]1CN[C@H](C(=O)O)[C@H]1O; Hyp = O=C(O)[C@@H]1C[C@@H](O)CN1
readout: AUC(0-t) (µg·h/mL)
# value in µg·h/mL; strip the unit string

QUERY: What does the record list as AUC(0-t) for CCCCCOc1ccc(-c2ccc(-c3ccc(C(=O)N[C@H]4C[C@@H](O)[C@@H](OCC[N+](C)(C)C)NC(=O)[C@@H]5[C@@H](O)[C@@H](C)CN5C(=O)[C@H]([C@@H](C)O)NC(=O)[C@H]([C@H](O)[C@@H](O)c5ccc(O)cc5)NC(=O)[C@@H]5C[C@@H](O)CN5C(=O)[C@H]([C@@H](C)O)NC4=O)cc3)cc2)cc1 [rezafungin] ({pTerphenylCO(4''-OnC5H11)}-[Orn(4R-OH,5R-OCH2CH2NMe3+)]T[Hyp][hTyr(3S-OH,4S-OH)]T[Pro(3S-OH,4S-Me)]; lactam 1-C) ?
RESULT: 2050

----------
Each entry below lists one item and its recorded Share of total recovered radioactivity in urine value.
# assayProcedure: Monkey metabolite profiling (LC-MS with radioactivity detection)
# Assay type: in vivo, cynomolgus monkeys
# conditionsUsed: cynomolgus monkey, in vivo, iv, 10 mg/kg
*1 amine or outer side, *2 acyl side, *3 side chain or, on linkers, in order; H or OH if unused. Where a SMILES comes first, the peptide text is derived from it. Bridges are numbered along the chain shown (N, C = ends). [ ]: non-standard residue; d: D form. The star is where a group is joined. Orn(4R-OH,5R-OCH2CH2NMe3+) = C[N+](C)(C)CCO[C@@H](N[*:3])[C@H](O)C[C@H](N[*:1])C(=O)[*:2]; hTyr(3S-OH,4S-OH) = N[C@H](C(=O)O)[C@H](O)[C@@H](O)c1ccc(O)cc1; X1 = CC(O)CCCOc1ccc(-c2ccc(-c3ccc(C(=O)*)cc3)cc2)cc1; X2 = CCCC(O)COc1ccc(-c2ccc(-c3ccc(C(=O)*)cc3)cc2)cc1; Pro(3S-OH,4S-Me) = C[C@H]1CN[C@H](C(=O)O)[C@H]1O; X4 = O=C(c1ccc(-c2ccc(-c3ccc(O)cc3)cc2)cc1)*; Hyp = O=C(O)[C@@H]1C[C@@H](O)CN1
# value in %; strip the unit string

compound	measurementUnit	reported
C[C@@H](O)[C@@H]1NC(=O)[C@H]([C@H](O)[C@@H](O)c2ccc(O)cc2)NC(=O)[C@@H]2C[C@@H](O)CN2C(=O)[C@H]([C@@H](C)O)NC(=O)[C@@H](NC(=O)c2ccc(-c3ccc(-c4ccc(O)cc4)cc3)cc2)C[C@@H](O)[C@@H](OCC[N+](C)(C)C)NC(=O)[C@@H]2[C@@H](O)[C@@H](C)CN2C1=O [despentyl-rezafungin] (X4-[Orn(4R-OH,5R-OCH2CH2NMe3+)]T[Hyp][hTyr(3S-OH,4S-OH)]T[Pro(3S-OH,4S-Me)]; lactam 1-C)	%	22

QUERY: What does the record list as Share of total recovered radioactivity in urine for CC(O)CCCOc1ccc(-c2ccc(-c3ccc(C(=O)N[C@H]4C[C@@H](O)[C@@H](OCC[N+](C)(C)C)NC(=O)[C@@H]5[C@@H](O)[C@@H](C)CN5C(=O)[C@H]([C@@H](C)O)NC(=O)[C@H]([C@H](O)[C@@H](O)c5ccc(O)cc5)NC(=O)[C@@H]5C[C@@H](O)CN5C(=O)[C@H]([C@@H](C)O)NC4=O)cc3)cc2)cc1 (stereo partly drawn) [4’-hydroxylpentyl rezafungin] (X1-[Orn(4R-OH,5R-OCH2CH2NMe3+)]T[Hyp][hTyr(3S-OH,4S-OH)]T[Pro(3S-OH,4S-Me)]; lactam 1-C) ?
RESULT: 42

QUERY: What does the record list as Share of total recovered radioactivity in urine for CCCC(O)COc1ccc(-c2ccc(-c3ccc(C(=O)N[C@H]4C[C@@H](O)[C@@H](OCC[N+](C)(C)C)NC(=O)[C@@H]5[C@@H](O)[C@@H](C)CN5C(=O)[C@H]([C@@H](C)O)NC(=O)[C@H]([C@H](O)[C@@H](O)c5ccc(O)cc5)NC(=O)[C@@H]5C[C@@H](O)CN5C(=O)[C@H]([C@@H](C)O)NC4=O)cc3)cc2)cc1 (stereo partly drawn) [2’-hydroxylpentyl rezafungin] (X2-[Orn(4R-OH,5R-OCH2CH2NMe3+)]T[Hyp][hTyr(3S-OH,4S-OH)]T[Pro(3S-OH,4S-Me)]; lactam 1-C) ?
RESULT: 25

Values from paper PMC8765310
